Target: GlyRα1^Q177Gβ (UniProt P48167+Q64018, Q205G)
Sequence (P48167 23-497, other chains not shown): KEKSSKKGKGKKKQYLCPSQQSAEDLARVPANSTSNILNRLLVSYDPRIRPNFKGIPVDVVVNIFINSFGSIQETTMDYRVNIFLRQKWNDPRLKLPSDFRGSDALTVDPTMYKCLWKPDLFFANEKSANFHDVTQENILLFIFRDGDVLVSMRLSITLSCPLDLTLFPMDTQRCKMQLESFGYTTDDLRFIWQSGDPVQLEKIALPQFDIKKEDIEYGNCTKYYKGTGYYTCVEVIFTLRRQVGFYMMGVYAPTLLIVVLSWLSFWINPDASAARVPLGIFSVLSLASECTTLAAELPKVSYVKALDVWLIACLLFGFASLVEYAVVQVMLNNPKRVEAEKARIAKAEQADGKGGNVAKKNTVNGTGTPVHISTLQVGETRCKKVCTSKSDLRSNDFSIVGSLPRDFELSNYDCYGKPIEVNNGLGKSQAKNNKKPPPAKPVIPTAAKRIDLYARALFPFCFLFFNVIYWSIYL
Experiment: whole-cell patch clamp recordings of transfected HEK293 cells
Details: read-out: EC50 glycine; HEK293, α1:β 1:2, whole-cell currents, 1–3000 μM glycine
pEC50: −log10 of the molar value.
Measure name: pEC50

[[record]]
cpd_smiles = "NCC(=O)O"
tgt = "GlyRα1^Q177Gβ (UniProt P48167+Q64018, Q205G)"
measured_result = 3.58


###

Target: GlyRα1β WT (UniProt P48167+Q64018)
Construct: expressed in transfected cells; host or cells: HEK293
Test: whole-cell patch clamp recordings of transfected HEK293 cells
Type: cell-based, murine
Details: HEK293, co-expressed with GlyRβ, whole-cell, 3–10000 μM β-alanine; read-out: EC50 β-alanine
Measure name: EC50 (µM)

[[record]]
compound = "NCCC(=O)O [β-alanine]"
measure_name = "EC50"
measured_result = 157

